Assay info: chemical genetic growth profiling, strain panel (AID 1159580);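 also: tested at 20 µM; growth read once vehicle control cultures reached saturation at 30 °C; 1 = growth at the plate median or of vehicle wells; lower values mean less growth of the strain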
Study conditions: S. cerevisiae deletion strains, growth OD, locus YOR136W, strain idh2
Among all 5,500 compounds or so, about 2,000 (36%) were called active. Roughly 18% stayed inconclusive and do not appear here. Rule as the data show it: active = normalized growth mostly below about 0.91 (no sharp cut-off); inconclusive = no clear call, values can overlap the other calls; inactive = mostly above about 0.92. Some of the results follow.
// one of class 1 = active, class 0 = inactive, no free text

The examples below pair each entry with its known result.
{"Molecule": "CC(=O)O[C@H]1CC[C@@]2(C)C(=CCC3C2CC[C@]2(C)C(=O)CCC32)C1 (stereo partly drawn)", "Class label": "class 0"}
{"Molecule": "CC(=O)O[C@H]1CC[C@@]2(C)C(=CCC3C2CC[C@@]2(C)C3CC[C@@H]2C(C)CCCC(C)C)C1 (stereo partly drawn)", "Class label": "class 0"}

Ask: What was the test verdict on CC[C@@H](C(=O)O)[C@@H]1O[C@@H]([C@@H](C)[C@H](O)[C@H](C)C(=O)[C@H](CC)[C@H]2O[C@]3(C=C[C@@H](O)[C@]4(CC[C@@](C)(C5CC[C@](O)(CC)[C@H](C)O5)O4)O3)[C@H](C)C[C@@H]2C)[C@@H](C)C[C@H]1C (stereo partly drawn) ?
Reply: class 1
